Cited source for all entries: PubChem BioAssay (NCI)

Tested on: CCRF-CEM leukemia
Method summary: NCI tumour cell line growth inhibition, 48 h; in the data active means GI50 below about 0.43 µM; inactive means the rest
Would you mind answering with one of these outcomes? YES for active, NO for inactive

Answered examples (7):
[
  {
    "Compound": "Clc1ccc(-c2nc(-c3c[nH]c4ncccc34)cs2)cc1",
    "Group": "NO"
  },
  {
    "Compound": "Cn1c(=O)c(Sc2ccccc2F)cc2cnc(NC3CCOCC3)nc21",
    "Group": "NO"
  },
  {
    "Compound": "Cc1cc(N2CCOCC2)nc(N(CCCNc2ccnc3cc(Cl)ccc23)Cc2ccc3c(c2)OCO3)n1",
    "Group": "YES"
  },
  {
    "Compound": "O=C(/C=C\\c1cccc([N+](=O)[O-])c1)c1ccccc1",
    "Group": "NO"
  },
  {
    "Compound": "Clc1ccc(N/N=C/c2ccccn2)nc1",
    "Group": "YES"
  },
  {
    "Compound": "CN(C)c1cc2c(cc1Sc1nc3c(N)nccc3n1CCNCC(C)(C)C)OCO2",
    "Group": "YES"
  },
  {
    "Compound": "Nc1ccccc1C#Cc1ccccc1C#Cc1ccccc1N",
    "Group": "NO"
  }
]

Tell me the assay call for C[C@H]1O[C@@H](O[C@H]2[C@@H](O)C[C@H](O[C@H]3[C@@H](O)C[C@H](O[C@H]4CC[C@]5(C)C6C[C@@H](O)[C@]7(C)[C@@H](C8=CC(=O)OC8)CC[C@]7(O)C6CC[C@@H]5C4)O[C@@H]3C)O[C@@H]2C)C[C@H](O)[C@@H]1O (stereo partly drawn) please.
YES

====

Please provide measured TGI for the entries that follow.
Tested on: CAKI-1 renal
Method summary: NCI tumour cell line growth inhibition, 48 h

Answered examples (3):
[
  {
    "Molecule": "O=Cc1ncc(-c2ccc(C(F)(F)F)cc2)c(NC2CCCCCC2)n1",
    "Measured value": "> 10 µM"
  },
  {
    "Molecule": "C/C=C1/CN2CCC34C5=CC(=O)C(c6cc7c(cc6OC)N(C)C6=C(C(=O)OC)CC8(CC)CCCN9CCC67C98)=CC5=NC23CCC1C4C(=O)OC (stereo not given)",
    "Measured value": "21.9 µM"
  },
  {
    "Molecule": "CCC[CH2][Sn]([CH2]CCC)([O]C(=O)c1cc(OC)c(OC)c(OC)c1)[O]C(=O)c1cc(OC)c(OC)c(OC)c1",
    "Measured value": "1.31 µM"
  }
]

Report TGI for each item below.
1. O=[n+]1cnn([O-])c2ccccc21
2. CC(=O)O[C@@]12[C@@H]3O[C@@]4(O)C[C@]5(C)[C@H]6C[C@@](C(C)C)(O[C@H]5c5ccoc5)O[C@H]1[C@]6(C4)O[C@]2(O)C(C)=CC3(C)C
3. CCOC(=O)NC(=O)c1cn(CCCCCCCCCCC(=O)N2CCN(CCn3cc(C(=O)NC(=O)OCC)c(=O)[nH]c3=O)CC2)c(=O)[nH]c1=O
4. Clc1cccc(Cn2cc(Cc3cn(Cc4cccc(Cl)c4)c4ccccc34)c3ccccc32)c1

55.1 µM
> 100 µM
> 100 µM
> 100 µM

====

Test system: RXF 393 renal
Method summary: NCI tumour cell line growth inhibition, 48 h
Property measured: TGI (µM)
Answers are plain numbers, in µM.

Answered examples (4):
[
  {
    "Smiles repr": "c1ccc2c(c1)nnn1c3cnccc3nc21",
    "TGI (µM)": 66.3
  },
  {
    "Smiles repr": "Nc1ccccc1C#Cc1ccccc1C#Cc1ccccc1N",
    "TGI (µM)": 32
  },
  {
    "Smiles repr": "O=[N+]([O-])c1ccccc1S(=O)(=O)c1ccccc1[N+](=O)[O-]",
    "TGI (µM)": 83.8
  },
  {
    "Smiles repr": "Oc1c(Cl)cc(C(c2cc(Cl)c(O)c(Cl)c2)C(c2cc(Cl)c(O)c(Cl)c2)c2cc(Cl)c(O)c(Cl)c2)cc1Cl",
    "TGI (µM)": 4.11
  }
]

// next entry
Give the measured TGI for "COc1ccc(S(=O)(=O)Nc2cc(/C=C\c3cc(OC)c(OC)c(OC)c3)cc(OC)c2OC)cc1OC"
4.55
